This collection of values is drawn from paper PMC12257544.

Test: Photophysical characterization (absorption, emission, QY, lifetime)
Assay type: physicochemical
Conditions: in ACN
Categorize each record by its Lifetime using band A = under 4 ns, band B = from 4 ns up to 6 ns, band C = 6 ns and over

{"compound": "Oc1nn2ccccc2c1-c1ccc2cc(-c3ccccc3)cnc2c1 [Compound 13]", "class": "band A"}
{"compound": "Oc1nn2ccccc2c1/C=C/c1cc(F)c(-c2ccccc2)c(F)c1F [Compound 11b]", "class": "band A"}

Ask: Place this compound in its band: CCOC(=O)c1c(OCc2ccccc2)nn2ccccc12 [Compound 2c]
Result: band C

Ask: Please do the same for CCOC(=O)c1c(OC)nn2ccccc12 [Compound 2a] as well.
Result: band C

Ask: Please do the same for COc1nn2ccccc2c1/C=C/c1ccc([N+](=O)[O-])cc1 [Compound 5e] as well.
Result: band A

Ask: Please do the same for CCOC(=O)c1c(=O)n(Cc2ccccc2)n2ccccc12 [Compound 2d] as well.
Result: band C

Ask: Please do the same for COc1nn2ccccc2c1/C=C/c1ccc(SC)cc1 [Compound 5b] as well.
Result: band A

Ask: Please do the same for COc1nn2ccccc2c1-c1ccc2ccccc2n1 [Compound 7a] as well.
Result: band A

Ask: Please do the same for Oc1nn2ccccc2c1/C=C/c1c(F)c(F)c(-c2ccccc2)c(F)c1F [Compound 11a] as well.
Result: band A

Ask: Please do the same for COc1nn2ccccc2c1NS(C)(=O)=O [Compound 3b] as well.
Result: band A

Ask: Please do the same for COc1nn2ccccc2c1-c1ccc2cccnc2c1 [Compound 7b] as well.
Result: band B

Ask: Please do the same for COc1nn2ccccc2c1-c1ccc2ncccc2c1 [Compound 7c] as well.
Result: band B

Ask: Please do the same for Oc1cc2ccccn2n1 [Compound 1, Pyrazolo[1,5-a]pyridin-2-ol] as well.
Result: band C

Ask: Please do the same for CCOC(=O)c1c(=O)n(C)n2ccccc12 [Compound 2b] as well.
Result: band C

Ask: Please do the same for COc1nn2ccccc2c1/C=C/c1ccc(C#N)cc1 [Compound 5d] as well.
Result: band A

Ask: Please do the same for COc1nn2c(Cl)cccc2c1-c1ccc2ncccc2c1 [Compound 9a] as well.
Result: band B
